Origin of measurements: patent US9233964B2

pEC50 values, listed per item
molecular target: TYK2 (Homo sapiens); construct: JAK1 (aa 850-1154) and TYK2 (aa 871-1187) are expressed with an N-terminally fused GST-tag; GST (N); test: JAK kinase assay (HTRF, phosphorylation of synthetic peptide), TYK2; settings: catalytic domain, ATP at Km (13 μM); read-out: TYK2 kinase inhibitory activity (EC50)
pEC50: −log10 of the molar value.

Study these solved cases before continuing.
[[record]]
compound = "CN(CCn1cccc1)S(=O)(=O)N1CCN(c2ncnc3[nH]ccc23)CC12CC2"
measured_attribute = "pEC50"
readout_value = "> 7.00"

[[record]]
compound = "CC(C)N(C)S(=O)(=O)N1CCN(c2ncnc3[nH]ccc23)CC12CC2"
measured_attribute = "pEC50"
readout_value = "< 6.30"

[[record]]
compound = "CN(Cc1cccc(C#N)c1)S(=O)(=O)N1CCN(c2ncnc3[nH]ccc23)CC12CC2"
measured_attribute = "pEC50"
readout_value = "6.30 to 7.00"

[[record]]
compound = "CN(CC1CCN(C(=O)CCC#N)C1)S(=O)(=O)N1CCN(c2ncnc3[nH]ccc23)CC12CC2 (centres unmarked)"
measured_attribute = "pEC50"
readout_value = "< 6.30"

[[record]]
compound = "CN(C(=O)CC1CCS(=O)(=O)C1)S(=O)(=O)N1CCN(c2ncnc3[nH]ccc23)CC12CC2 (centres unmarked)"
measured_attribute = "pEC50"
readout_value = "< 6.30"


Record summary for N#CCCCNS(=O)(=O)N1CCN(c2ncnc3[nH]ccc23)CC12CC2 : reported pEC50 = 6.30 to 7.00

Record summary for CN(C(=O)CC(F)(F)F)S(=O)(=O)N1CCN(c2ncnc3[nH]ccc23)CC12CC2 : reported pEC50 = 6.30 to 7.00

Record summary for CN(C[C@@H]1CC(F)(F)CN1C(=O)CCC#N)S(=O)(=O)N1CCN(c2ncnc3[nH]ccc23)CC12CC2 : reported pEC50 = > 7.00

###

Target: TYK2 (Homo sapiens, UniProt P29597)
Construct: JAK1 (aa 850-1154) and TYK2 (aa 871-1187) are expressed with an N-terminally fused GST-tag; GST (N)
Sequence (P29597 871-1187): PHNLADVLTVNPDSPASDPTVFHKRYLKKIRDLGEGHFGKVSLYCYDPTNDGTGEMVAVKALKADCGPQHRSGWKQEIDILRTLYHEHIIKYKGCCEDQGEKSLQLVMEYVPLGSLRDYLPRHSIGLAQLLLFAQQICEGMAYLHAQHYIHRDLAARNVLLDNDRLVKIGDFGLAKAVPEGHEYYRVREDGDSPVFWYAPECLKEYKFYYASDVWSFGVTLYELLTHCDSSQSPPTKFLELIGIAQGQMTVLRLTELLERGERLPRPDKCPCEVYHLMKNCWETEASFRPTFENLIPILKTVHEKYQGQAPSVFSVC
Assay: JAK kinase assay (HTRF, phosphorylation of synthetic peptide), TYK2
Details: catalytic domain, ATP at Km (13 μM); read-out: TYK2 kinase inhibitory activity (EC50)
pEC50: −log10 of the molar value.
measured-attribute: pEC50

Study these solved cases before continuing.
[[record]]
compound = "CCC(=O)N1CCC(CN(C)S(=O)(=O)N2CCN(c3ncnc4[nH]ccc34)CC23CC3)C1 (centres unmarked)"
measured_attribute = "pEC50"
readout_value = "< 6.30"

[[record]]
compound = "CN(CC12C3C4C1C1C2C3C41C#N)S(=O)(=O)N1CCN(c2ncnc3[nH]ccc23)CC12CC2 (centres unmarked)"
measured_attribute = "pEC50"
readout_value = "> 7.00"


Below: the item to evaluate.
Record summary for COc1ccc(CNS(=O)(=O)N2CCN(c3ncnc4[nH]ccc34)CC23CC3)cc1 : reported pEC50 = < 6.30

###

pEC50 values, listed per item
biological target: TYK2 (Homo sapiens, UniProt P29597); construct: JAK1 (aa 850-1154) and TYK2 (aa 871-1187) are expressed with an N-terminally fused GST-tag; GST (N); assay: JAK kinase assay (HTRF, phosphorylation of synthetic peptide), TYK2; details: catalytic domain, ATP at Km (13 μM); read-out: TYK2 kinase inhibitory activity (EC50)
pEC50: −log10 of the molar value.

Record summary for O=S(=O)(N(Cc1ccccc1)Cc1ccccc1)N1CCN(c2ncnc3[nH]ccc23)CC12CC2 [Example 146] : reported pEC50 = < 6.30

###

Target: TYK2 (Homo sapiens)
Construct: JAK1 (aa 850-1154) and TYK2 (aa 871-1187) are expressed with an N-terminally fused GST-tag; GST (N)
Sequence (P29597 871-1187): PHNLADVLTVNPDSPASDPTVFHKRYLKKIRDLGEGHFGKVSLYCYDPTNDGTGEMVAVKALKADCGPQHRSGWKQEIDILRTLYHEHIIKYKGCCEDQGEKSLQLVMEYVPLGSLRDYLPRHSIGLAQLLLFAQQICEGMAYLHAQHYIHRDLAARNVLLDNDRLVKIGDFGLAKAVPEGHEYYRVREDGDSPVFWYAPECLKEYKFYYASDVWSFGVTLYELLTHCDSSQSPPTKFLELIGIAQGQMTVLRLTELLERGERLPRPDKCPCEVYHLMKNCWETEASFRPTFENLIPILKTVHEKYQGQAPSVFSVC
Assay: JAK kinase assay (HTRF, phosphorylation of synthetic peptide), TYK2
Conditions: catalytic domain, ATP at Km (13 μM); read-out: TYK2 kinase inhibitory activity (EC50)
EC50 values, listed per item

[[record]]
molecule = "CC(CN(C)S(=O)(=O)N1CCN(c2ncnc3[nH]ccc23)CC12CC2)c1ccccc1 (centres unmarked)"
measured_attribute = "EC50"
readout_value = "100 to 500 nM"


Record summary for CN(CCCc1ccc(C#N)cc1)S(=O)(=O)N1CCN(c2ncnc3[nH]ccc23)CC12CC2 : reported EC50 = > 500 nM

Record summary for CN(CC1CCCNC1)S(=O)(=O)N1CCN(c2ncnc3[nH]ccc23)CC12CC2 (centres unmarked) : reported EC50 = > 500 nM

Record summary for CN(C[C@@H]1CC(F)(F)CN1S(C)(=O)=O)S(=O)(=O)N1CCN(c2ncnc3[nH]ccc23)CC12CC2 : reported EC50 = < 100 nM

Record summary for CN(CCOc1ccccc1)S(=O)(=O)N1CCN(c2ncnc3[nH]ccc23)CC12CC2 : reported EC50 = 100 to 500 nM

###

molecular target: JAK3 (Homo sapiens, UniProt P52333); construct: All four purified enzymes contain only the catalytic domain; His (N); test: JAK kinase assay (HTRF, phosphorylation of synthetic peptide), JAK3; conditions: catalytic domain, ATP at Km (2 μM); read-out: JAK3 kinase inhibitory activity (EC50)
Sequence (P52333 822-1111 limits assumed): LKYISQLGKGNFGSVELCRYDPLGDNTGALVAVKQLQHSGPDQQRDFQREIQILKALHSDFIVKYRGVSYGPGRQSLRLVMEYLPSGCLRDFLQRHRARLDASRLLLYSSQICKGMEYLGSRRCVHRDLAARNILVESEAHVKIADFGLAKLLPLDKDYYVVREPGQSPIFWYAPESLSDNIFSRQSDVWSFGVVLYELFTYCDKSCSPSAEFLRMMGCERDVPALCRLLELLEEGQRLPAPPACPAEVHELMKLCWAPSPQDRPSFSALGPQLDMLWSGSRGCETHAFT
pEC50: −log10 of the molar value.
measured-attribute: pEC50

Record summary for O=S(=O)(N1CCN(c2ncnc3[nH]ccc23)CC12CC2)n1ccnc1 : reported pEC50 = < 6.30

Record summary for CN(CCOc1cccc(C#N)c1)S(=O)(=O)N1CCN(c2ncnc3[nH]ccc23)CC12CC2 : reported pEC50 = 6.30 to 7.00

Record summary for CN(C)C(=O)CN(C)S(=O)(=O)N1CCN(c2ncnc3[nH]ccc23)CC12CC2 : reported pEC50 = 6.30 to 7.00

Record summary for COCCN(C1CCC1)S(=O)(=O)N1CCN(c2ncnc3[nH]ccc23)CC12CC2 : reported pEC50 = 6.30 to 7.00

Record summary for CN(CC1CCNCC1)S(=O)(=O)N1CCN(c2ncnc3[nH]ccc23)CC12CC2 : reported pEC50 = 6.30 to 7.00

Record summary for O=S(=O)(N(CCOc1ccccc1)C1COC1)N1CCN(c2ncnc3[nH]ccc23)CC12CC2 : reported pEC50 = > 7.00

Record summary for CN(CC1CC1)S(=O)(=O)N1CCN(c2ncnc3[nH]ccc23)CC12CC2 : reported pEC50 = > 7.00

Record summary for CN(C(=O)CCC1CCCC1)S(=O)(=O)N1CCN(c2ncnc3[nH]ccc23)CC12CC2 : reported pEC50 = < 6.30

###

target: JAK2 (Homo sapiens, UniProt O60674); construct: All four purified enzymes contain only the catalytic domain; His (N); experiment: JAK kinase assay (HTRF, phosphorylation of synthetic peptide), JAK2; details: catalytic domain, ATP at Km (4 μM); read-out: JAK2 kinase inhibitory activity (EC50)
Sequence (O60674 849-1124 limits assumed): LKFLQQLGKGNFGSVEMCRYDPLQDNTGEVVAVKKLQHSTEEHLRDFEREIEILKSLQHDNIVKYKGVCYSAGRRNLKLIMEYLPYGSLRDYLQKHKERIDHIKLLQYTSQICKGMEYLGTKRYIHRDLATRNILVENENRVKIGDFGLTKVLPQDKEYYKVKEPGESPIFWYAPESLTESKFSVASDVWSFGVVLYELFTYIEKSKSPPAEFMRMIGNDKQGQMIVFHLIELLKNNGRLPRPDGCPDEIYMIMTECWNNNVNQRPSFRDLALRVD
measured-attribute: EC50

Study these solved cases before continuing.
[[record]]
molecule = "CN(CCc1ccc(F)cc1)S(=O)(=O)N1CCN(c2ncnc3[nH]ccc23)CC12CC2"
readout_value = "< 100 nM"

[[record]]
molecule = "CN(CC1CCCN(C(=O)CCC#N)C1)S(=O)(=O)N1CCN(c2ncnc3[nH]ccc23)CC12CC2 (centres unmarked)"
readout_value = "< 100 nM"

[[record]]
molecule = "CC(=O)N(CC1CCS(=O)(=O)C1)S(=O)(=O)N1CCN(c2ncnc3[nH]ccc23)CC12CC2 (centres unmarked)"
readout_value = "< 100 nM"

[[record]]
molecule = "CN(CC1CC(=O)C1)S(=O)(=O)N1CCN(c2ncnc3[nH]ccc23)CC12CC2"
readout_value = "< 100 nM"


Field EC50 (JAK2 (Homo sapiens, UniProt O60674)), entry CN(C[C@H]1CCCN1C=O)S(=O)(=O)N1CCN(c2ncnc3[nH]ccc23)CC12CC2 : < 100 nM

Field EC50 (JAK2 (Homo sapiens, UniProt O60674)), entry CN(CC1CCS(=O)(=O)C1)S(=O)(=O)N1CCN(c2ncnc3[nH]ccc23)CC12CC2 (centres unmarked) : < 100 nM

Field EC50 (JAK2 (Homo sapiens, UniProt O60674)), entry CN(CCCc1ccc(C#N)cc1)S(=O)(=O)N1CCN(c2ncnc3[nH]ccc23)CC12CC2 : < 100 nM

Field EC50 (JAK2 (Homo sapiens, UniProt O60674)), entry O=S(=O)(NCCO)N1CCN(c2ncnc3[nH]ccc23)CC12CC2 : < 100 nM

Field EC50 (JAK2 (Homo sapiens, UniProt O60674)), entry CN(C1CCC1)S(=O)(=O)N1CCN(c2ncnc3[nH]ccc23)CC12CC2 : < 100 nM

Field EC50 (JAK2 (Homo sapiens, UniProt O60674)), entry CN(C[C@@H]1CCCN1C(=O)CCO)S(=O)(=O)N1CCN(c2ncnc3[nH]ccc23)CC12CC2 : < 100 nM
